target: T1, recombinant c-Met extracellular domain (human, UniProt P08581 16-932); assay: SPR kinetic analysis as in Example 2
T1 construct: Construct used for SPR is not described further (may be the Fc chimera, as the protocol captures on anti-human Fc)
Give Kd for every item shown.
Please respond with the number in nM and leave the unit unwritten.

Query block: Entry under review: P114AR5P75-E9 (designed binder, not shown: small tags and cut ends) LPAPKNLVVSRVTEDSARLSWTAPDAAFDSFFIRYDEFLRSGEAIVLTVPGSERSYDLTGLKPGTEYWVTILGVKGGLVSTPLSAIFTT . Reported Kd?
Result block: 45.8

Query block: Same question for P114AR7P92-G8 (designed binder, not shown: small tags and cut ends) LPAPKNLVVSRVTEDSARLSWTAPDAAFDSFVIRYFEFLGSGEAIVLTVPGSERSYDLTGLKPGTEYVVQILGVKGGYISIPLSAIFTT please.
Result block: 1

Query block: Same question for P114AR7P95-D3 (designed binder, not shown: small tags and cut ends) LPAPKNLVVSRVTEDSARLSWTAPDAAFDSFWIRYFEFLGSGEAIVLTVPGSERSYDLTGLKPGTEYVVNIMGVKGGSISYPLSAIFTT please.
Result block: 0.3

Query block: Same question for P114AR7P95-H8 (designed binder, not shown: small tags and cut ends) LPAPKNLVVSRVTEDSARLSWTAPDAAFDSFWIRYFEFVSKGEAIVLTVPGSERSYDLTGLKPGTEYVVNIMGVKGGSISPPLSAIFTT please.
Result block: 3.7

Query block: Same question for P114AR7P93-H9 (designed binder, not shown: small tags and cut ends) LPAPKNLVVSRVTEDSARLSWTAPDAAFDSFWIRYFEFLGSGEAIVLTVPGSERSYDLTGLKPGTEYVVQIIGVKGGHISLPLSAIFTT please.
Result block: 3.3
